TESTED ON: GLUT1 (Homo sapiens)
Assay type: binding
CONDITION SET: Ki (affinity of unoccupied GLUT1 for ligand), 50 nM [3H]-CB, 4°C, eqn 6, iterative free [I]
Could you please report measured Ki for the items listed next?

The reported value for C[C@H]1C/C=C/[C@H]2[C@@H]3O[C@]3(C)[C@@H](C)[C@H]3[C@H](Cc4ccccc4)NC(=O)[C@]32OC(=O)O/C=C/[C@@](C)(O)C1=O [CCE, Cytochalasin E] in terms of Ki is 99 nM

get_value(item= C=C[C@@]1(C)CC(=O)[C@]2(O)[C@@]3(C)[C@@H](O)CCC(C)(C)[C@@H]3[C@H](O)[C@H](OC(C)=O)[C@@]2(C)O1 [FSK, forskolin] , readout=Ki) returns 3280 nM

So, C=C1[C@@H](C)[C@H]2[C@H](Cc3ccccc3)NC(=O)[C@]23[C@H](OC(C)=O)/C=C/[C@@](C)(O)C(=O)[C@@H](C)C/C=C/[C@H]3[C@@H]1O [CCD, Cytochalasin D] ? Its Ki was 1970 nM

----------
TESTED ON: GLUT1 (Homo sapiens)
Sequence (P11166 1-492): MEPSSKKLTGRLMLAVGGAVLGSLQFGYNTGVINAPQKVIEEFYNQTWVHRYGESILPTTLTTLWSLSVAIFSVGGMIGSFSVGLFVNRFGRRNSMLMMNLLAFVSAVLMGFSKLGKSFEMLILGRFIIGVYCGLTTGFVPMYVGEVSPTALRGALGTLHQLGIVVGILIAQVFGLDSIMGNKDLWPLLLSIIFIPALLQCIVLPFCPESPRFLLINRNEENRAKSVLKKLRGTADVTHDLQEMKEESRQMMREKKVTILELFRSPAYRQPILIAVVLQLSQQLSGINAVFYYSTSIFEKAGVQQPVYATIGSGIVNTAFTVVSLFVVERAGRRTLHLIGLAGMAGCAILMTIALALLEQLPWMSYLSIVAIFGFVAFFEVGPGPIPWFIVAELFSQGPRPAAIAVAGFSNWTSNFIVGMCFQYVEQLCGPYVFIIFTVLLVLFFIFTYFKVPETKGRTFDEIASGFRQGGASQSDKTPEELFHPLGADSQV
Type: binding
CONDITION SET: read-out: KL (Table 2, taken from Table 1); cytochalasins, rounded values
Answer each item with its documented pKd.
Please report pKd as the negative decimal logarithm of the molar concentration, giving only the number.

pKd in this record for C=C1[C@@H](C)[C@H]2[C@H](Cc3ccccc3)NC(=O)[C@]23[C@H](OC(C)=O)/C=C/[C@](C)(O)C[C@@H](C)C/C=C/[C@H]3[C@@H]1O : 7.00

Sure, the documented pKd for CC(=O)O[C@@H]1/C=C\[C@@](C)(O)C(=O)[C@@H](C)C/C=C\[C@H]2[C@H](O)C(C)=C(C)[C@H]3C(Cc4ccccc4)NC(=O)[C@]132 (stereo partly drawn) is 5.80

compound C=C1[C@@H](C)[C@H]2[C@H](Cc3ccccc3)NC(=O)[C@]23OC(=O)/C=C/C(=O)CCC[C@@H](C)C/C=C/[C@H]3[C@@H]1O , pKd observed: 6.09

----------
TESTED ON: GLUT1-mediated sugar transport in red cells (Homo sapiens)
MEASUREMENT NOTES: Equilibrium exchange 3-O-methylglucose uptake in red cells
Format: cell-based
OBSERVABLE: pKi
In plain terms, pKi is the concentration in mol/L turned into minus its base-10 logarithm.

GLUT1-mediated sugar transport in red cells (Homo sapiens) data for C=C[C@@]1(C)CC(=O)[C@]2(O)[C@@]3(C)[C@@H](O)CCC(C)(C)[C@@H]3[C@H](O)[C@H](OC(C)=O)[C@@]2(C)O1 [FSK, forskolin] ; its pKi: 5.92

----------
TESTED ON: GLUT1 (Homo sapiens, UniProt P11166)
Assay type: binding
CONDITION SET: change in ΔG° relative to baseline cytochalasin or forskolin
Rule: ΔΔG° of -3 kcal/mol or more gives True; anything lower gives False.

# bool: ΔΔG° of CC[C@@]1(C)CC(=O)[C@@]2(O)[C@]3(C)[C@H](O)CCC(C)(C)[C@H]3[C@@H](O)[C@@H](OC(C)=O)[C@]2(C)O1 [14.15DiHFSK, 14,15-dihydro-forskolin] >= -3 kcal/mol
True

For this compound, is measured ΔΔG° -3 kcal/mol or higher? C=C[C@@]1(C)CC(=O)[C@]2(O)[C@@]3(C)[C@@H](OC(C)=O)CCC(C)(C)[C@@H]3[C@H](OC(C)=O)[C@H](OC(C)=O)[C@@]2(C)O1
True

Is it the case that C=C[C@@]1(C)CC(=O)[C@]2(O)[C@@]3(C)[C@@H](OC(C)=O)CCC(C)(C)[C@@H]3[C@H](O)[C@H](OC(C)=O)[C@@]2(C)O1 has ΔΔG° reaching or exceeding -3 kcal/mol?
False

Given C=C1[C@@H](C)[C@H]2[C@H](Cc3ccccc3)NC(=O)[C@]23[C@H](OC(C)=O)/C=C/[C@@](C)(O)C(=O)[C@@H](C)C/C=C/[C@H]3[C@@H]1O , state whether its ΔΔG° is at least -3 kcal/mol.
True

Would you say C=C[C@@]1(C)CC(=O)[C@]2(O)[C@@]3(C)[C@@H](O)CCC(C)(C)[C@@H]3[C@H](O)[C@H](O)[C@@]2(C)O1 shows ΔΔG° at minimum -3 kcal/mol?
False

----------
TESTED ON: GLUT1 (Homo sapiens, UniProt P11166)
Sequence (P11166 1-492): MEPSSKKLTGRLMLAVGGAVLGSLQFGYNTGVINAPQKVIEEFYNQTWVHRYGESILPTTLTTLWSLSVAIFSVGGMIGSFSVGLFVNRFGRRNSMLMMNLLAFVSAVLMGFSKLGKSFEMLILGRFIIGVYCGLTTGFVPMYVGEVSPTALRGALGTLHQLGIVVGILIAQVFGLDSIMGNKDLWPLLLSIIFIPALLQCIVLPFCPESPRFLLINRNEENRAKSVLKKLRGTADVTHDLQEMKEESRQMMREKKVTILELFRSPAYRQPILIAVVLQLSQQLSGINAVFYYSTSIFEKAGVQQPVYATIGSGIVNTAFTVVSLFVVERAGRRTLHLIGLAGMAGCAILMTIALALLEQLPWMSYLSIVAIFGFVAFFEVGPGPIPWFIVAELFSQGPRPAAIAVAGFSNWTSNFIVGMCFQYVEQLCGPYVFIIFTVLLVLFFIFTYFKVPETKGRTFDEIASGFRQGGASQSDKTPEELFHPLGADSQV
Assay type: binding
CONDITION SET: 50 nM [3H]-CB, competing ligand 0 to 100 μM
OBSERVABLE: Inhibition (type of modulation of CB binding)

Please fill in: Inhibition (type of modulation of CB binding) reported for C=C1[C@@H](C)[C@H]2[C@H](Cc3ccccc3)NC(=O)[C@]23OC(=O)/C=C/[C@H](O)CCC[C@@H](C)C/C=C/[C@H]3[C@@H]1O [CCB, Cytochalasin B] = 1

The reported Inhibition (type of modulation of CB binding) of the compound C=C[C@@]1(C)CC(=O)[C@]2(O)[C@@]3(C)[C@@H](OC(C)=O)CCC(C)(C)[C@@H]3[C@H](O)[C@H](OC(C)=O)[C@@]2(C)O1 [1AFSK, 1-acetyl-forskolin] was 2

Sample C=C[C@@]1(C)CC(=O)[C@H]2[C@](C)(O1)[C@@H](OC(C)=O)[C@@H](O)[C@H]1C(C)(C)CC[C@H](O)[C@@]12C [9DOFSK, 9-deoxy-forskolin] ; Inhibition (type of modulation of CB binding) observed: 2

# compound C=C1[C@@H](C)[C@H]2[C@H](Cc3ccccc3)NC(=O)[C@]23OC(=O)/C=C/C(=O)CCC[C@@H](C)C/C=C/[C@H]3[C@@H]1O [CCA, Cytochalasin A] ; its Inhibition (type of modulation of CB binding) = 2

Briefly, Inhibition (type of modulation of CB binding) measured for C=C[C@@]1(C)CC(=O)[C@]2(O)[C@@]3(C)[C@@H](O)CCC(C)(C)[C@@H]3[C@H](O)[C@H](OC(=O)CF)[C@@]2(C)O1 [7FAFSK, 7-fluoroacetyl-forskolin] : 2

Lab note: measured Inhibition (type of modulation of CB binding) of C=C[C@@]1(C)CC(=O)[C@]2(O)[C@@]3(C)CCCC(C)(C)[C@@H]3[C@H](O)[C@H](OC(C)=O)[C@@]2(C)O1 [1DOFSK, 1-deoxy-forskolin] was 2

The compound listed as C=C[C@@]1(C)CC(=O)[C@]2(O)[C@@]3(C)[C@@H](O)CCC(C)(C)[C@@H]3[C@H](O)[C@H](O)[C@@]2(C)O1 [7DeAFSK, 7-deacetyl-forskolin] shows Inhibition (type of modulation of CB binding) equal to 4

Notebook: C=C1[C@@H](C)[C@H]2[C@H](Cc3ccccc3)NC(=O)[C@]23[C@H](O)/C=C/[C@](C)(O)C[C@@H](C)C/C=C/[C@H]3[C@@H]1O [CCJ, Cytochalasin J] , Inhibition (type of modulation of CB binding) read as 3
